Measured values drawn from PubChem BioAssay AID1040 for this set.

Biological target: Neuropeptide Y receptor type 1 (Homo sapiens) (UniProt P25929)
Sequence (P25929 whole entry, looked up): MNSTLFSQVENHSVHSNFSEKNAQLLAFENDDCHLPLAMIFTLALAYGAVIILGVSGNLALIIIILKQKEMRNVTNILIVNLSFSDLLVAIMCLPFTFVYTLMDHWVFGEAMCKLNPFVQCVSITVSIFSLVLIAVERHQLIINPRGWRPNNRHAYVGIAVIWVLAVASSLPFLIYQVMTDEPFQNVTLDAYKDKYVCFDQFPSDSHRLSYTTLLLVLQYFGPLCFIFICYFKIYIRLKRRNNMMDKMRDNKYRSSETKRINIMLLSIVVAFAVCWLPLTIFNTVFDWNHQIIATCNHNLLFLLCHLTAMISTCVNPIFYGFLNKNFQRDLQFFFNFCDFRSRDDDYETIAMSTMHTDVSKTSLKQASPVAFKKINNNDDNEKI
Assay: blockers of human neuropeptide Y Y1 receptor – cell-based, primary screen (AID 1040);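 note: 0% = DMSO wells given NPY plus isoproterenol and 100% = isoproterenol alone without NPY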
Conditions: HEK293-CNG Y1 cells, membrane potential fluorescence; at 3.6 µM; stronger effect = higher value; NPY at EC95, then isoproterenol
Out of some 200,000 compounds screened, about 2,000 (1%) were called active. What follows is part of a selection rich in actives, with near analogues and random picks from the rest.

# COMPOUND, inhibition (%)
data = [
    ("CCCC(=O)Nc1ccc(Cl)c(NC(=O)c2ccc(Br)o2)c1", -1.88),
    ("COc1cc(OC)c(NC(=O)c2ccc(Br)o2)cc1Cl", 0),
    ("O=C(c1cccc(S(=O)(=O)Nc2ccccc2Cl)c1)N1CCN(C(=O)c2ccco2)CC1", -2.11),
    ("COc1ccc(OC)c(CNC(=O)C2CCCN(c3nc4ccccc4o3)C2)c1 (configuration not stated)", 7.8),
    ("O=C(CN1C(=O)NC2(CCCCCC2)C1=O)NC1CC1", 0.75),
    ("O=C(CC1CCCCC1)Nc1c2c(nn1-c1ccc(F)cc1)CS(=O)(=O)C2", 46.3),
    ("CC(=O)N1CC(C)c2scc(C)[n+]2-c2ccccc21 (configuration not stated)", 23.1),
    ("O=C(CN1C(=O)NC2(CCCC2)C1=O)NCC1CCCO1 (configuration not stated)", -1.75),
    ("CC(C)N(C(=O)CSc1nc(COc2ccccc2)nc2ccccc12)C(C)C", 3.31),
    ("Cc1c(CN2CCCC(C(=O)c3cccc(Cl)c3)C2)c(=O)n(-c2ccccc2)n1C (configuration not stated)", -2.25),
    ("COc1ccccc1CNC(=O)C1CCN(c2nc3ccccc3o2)CC1", -3.62),
    ("O=C(Nc1ccc(F)cc1)N1CCCC(c2nc3c(nnn3Cc3ccccc3Cl)c(=O)[nH]2)C1 (configuration not stated)", -6.56),
    ("CCN(CC)S(=O)(=O)c1ccc(Cl)c(NC(=O)c2ccncc2)c1", 1.54),
    ("CCCCCCC(=O)Nc1nc(C)c(-c2csc(Nc3cccc(OC)c3)n2)s1", 28.2),
    ("CN(C)CCSc1nc(N)c2c3c(sc2n1)COC(C)(C)C3", 1.6),
    ("CCCSc1nc(NCc2ccco2)c2c3c(sc2n1)COC(C)(CC)C3 (configuration not stated)", 30.4),
    ("CCCCCCC(=O)Nc1nc(C)c(-c2csc(Nc3cc(Cl)ccc3OC)n2)s1", 11.2),
    ("CSCC[C@H](NC(=O)OC(C)(C)C)C(=O)N/N=C/c1cc2ccc(C)cc2nc1Cl", -2.75),
    ("CCc1ccc(CNC(=O)C2CCCN(c3nc4ccccc4o3)C2)cc1 (configuration not stated)", 26.4),
    ("CCCCC(=O)Nc1nc(C)c(-c2csc(Nc3ccc(Cl)cc3)n2)s1", 4.16),
    ("O=C(CC1NCCNC1=O)Nc1cc(Cl)cc(Cl)c1 (configuration not stated)", 0.62),
    ("O=C(CN1C2=NCCN2c2ccccc21)c1cccs1", 3.06),
]

---

Molecular target: Neuropeptide Y receptor type 1 (Homo sapiens)
Test: blockers of human neuropeptide Y Y1 receptor – cell-based, primary screen (AID 1040);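 note: 0% = DMSO wells given NPY plus isoproterenol and 100% = isoproterenol alone without NPY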
Settings: HEK293-CNG Y1 cells, membrane potential fluorescence; at 3.6 µM; NPY at EC95, then isoproterenol
Screen size: about 200,000 compounds; about 2,000 (1%) were called active.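 How the source made its calls: active means inhibition above the campaign mean inhibition of all tested compounds plus 3 SD (cut at about 20% in these data); inactive means the rest.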 The entries come from a sample that favours actives as a whole.
Possible outcomes: active, inactive

# MOLECULE, CLASS_LABEL
records = [
    ("Nc1nonc1-c1nc2ccccc2n1CCC(=O)O", "inactive"),
    ("OCC1(Cc2ccccc2)CCN(Cc2cc3ccccc3o2)CC1", "inactive"),
    ("COc1ccc(C)c(Cn2c(-c3nonc3N)nc3ccccc32)c1", "active"),
    ("CN(C)CCNC(=O)/C(=C/c1cccc([N+](=O)[O-])c1)NC(=O)c1ccccc1", "inactive"),
    ("O=C(NCCc1ccc2c(c1)OCCO2)c1cc2ccccc2o1", "active"),
    ("Cc1ccc(C(=O)N/C(=C/c2ccc(-c3cccc([N+](=O)[O-])c3)o2)C(=O)NCCCN(C)C)cc1", "active"),
    ("O=C(N/N=C/c1ccc(Br)o1)c1cncc(Br)c1", "inactive"),
    ("CCCn1c(C(O)c2cc(OC)ccc2OC)nc2ccccc21 (stereo unspecified)", "inactive"),
    ("COCCn1c(-c2ccc(OC)c(OC)c2)nc2ccccc21", "inactive"),
    ("COc1ccc(C(=O)Nc2c(Cl)cc(Cl)cc2C(=O)N2CCC(C)CC2)cc1", "inactive"),
    ("N#C/C(=C\\c1ccc(-c2cccc([N+](=O)[O-])c2)o1)C(=O)NCCN1CCOCC1", "inactive"),
]
